- target.or.system: SNAP25 Peptide 4 (PEP4, BoNT/A cleavage site region) (Homo sapiens, UniProt P60880 SEQ:1-24)
- Sequence (P60880 174-197): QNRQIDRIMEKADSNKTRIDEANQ
- protocol.details: ELONA
- run.conditions: label: biotin
Field: binding signal. Provide a value for each of the binders that follow.
Please respond with the number in ELISA signal and leave the unit unwritten.

Prompt: Assign binding signal to the following record: PEP 4.17 (ssDNA) DNA: TTTTTAAGCCCACGCCAGTTCGGTCAACGAACTACGGTGATGTGGGCCCATG
Response: 24

Prompt: Assign binding signal to the following record: PEP 4.06 (ssDNA) DNA: TTTTTAAGCCCACGAGAGTTCGATAGTCACAGATTGGCACCGTCGTGCCATG
Response: 131

Prompt: Assign binding signal to the following record: PEP 4.08 (ssDNA) DNA: TTTTTAACACGACCATTCTGTGCCAGCCGAACTCCGTGCTGGTGGGCCCATG
Response: 94

Prompt: Assign binding signal to the following record: PEP 4.01 (ssDNA) DNA: TTTTTAAGCCCACAAGCGTTCGGCTCTCACAGATCGTTGACGTGGGCCCATG
Response: 257

Prompt: Assign binding signal to the following record: PEP 4.13 (ssDNA) DNA: TTTTTAAGCCCACGGCCGTTCGGCCACCACAGTGTGGCAGCGTCGTGCCATG
Response: 57

Prompt: Assign binding signal to the following record: PEP 4.21 (ssDNA) DNA: TTTTTAAGCCCACGGGGCTGTGAGCAACGAACATTGGCACAGTCGTGCCATG
Response: 18

Data origin: patent US20220064648
